# SYSTEM_UNDER_TEST: human V1a receptor (Homo sapiens, UniProt P37288)
# Construct: expressed in transfected cells; host or cells: CHO K1 (ATCC), also stably transfected with a modified aequorin
# Sequence (P37288 whole entry): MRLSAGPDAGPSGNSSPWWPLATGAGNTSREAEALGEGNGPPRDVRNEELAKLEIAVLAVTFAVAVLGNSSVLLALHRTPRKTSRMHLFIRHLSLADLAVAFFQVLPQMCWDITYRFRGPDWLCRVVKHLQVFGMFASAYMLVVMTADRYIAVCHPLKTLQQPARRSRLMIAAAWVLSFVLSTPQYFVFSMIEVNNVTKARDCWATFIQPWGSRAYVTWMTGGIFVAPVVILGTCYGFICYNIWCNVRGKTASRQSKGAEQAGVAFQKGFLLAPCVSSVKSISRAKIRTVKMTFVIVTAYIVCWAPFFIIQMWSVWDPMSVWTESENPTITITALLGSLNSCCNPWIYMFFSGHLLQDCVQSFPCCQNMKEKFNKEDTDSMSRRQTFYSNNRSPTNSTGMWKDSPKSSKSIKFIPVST
# ASSAY_NAME: Cellular in vitro assay for vasopressin receptor activity, V1a receptor cell line (aequorin luminescence)
# Format: cell-based
# CONDITION_DETAILS: Table 1A; selectivity V1a over V2
MEASURED_PROPERTY: ratio IC50 hV2/hV1a

[
  {
    "SMILES": "NC(=O)c1nc(Cn2nc(-c3ccc(Cl)cc3)n(C[C@@H](O)C(F)(F)F)c2=O)nn1-c1ccccc1OC(F)(F)F",
    "VALUE_OBSERVED": 68.9
  },
  {
    "SMILES": "NC(=O)c1nc(Cn2nc(-c3ccc(Cl)cc3)n(C[C@H](O)C(F)(F)F)c2=O)nn1-c1ccccc1OC(F)(F)F",
    "VALUE_OBSERVED": 60.4
  },
  {
    "SMILES": "CCOc1ccccc1-n1nc(Cn2nc(-c3ccc(Cl)cc3)n(C[C@@H](O)C(F)(F)F)c2=O)nc1C(N)=O",
    "VALUE_OBSERVED": 108.5
  },
  {
    "SMILES": "CNC(=O)c1ccccc1-n1nc(Cn2nc(-c3ccc(Cl)cc3)n(C[C@H](O)C(F)(F)F)c2=O)nc1C(N)=O",
    "VALUE_OBSERVED": 75.6
  }
]

Where do these numbers come from? They come from patent US10815205B2.
